experiment: Lymphocyte viability assay (LCV, MTT) on murine splenocytes; format: cell-based; conditions: mouse, splenocytes, MLR, 5.0 × 10^-14 μg/ml, MTT; read-out: % Viability (LCV)
measured_parameter: viability

- C=C1CC(OC)(C(O)C(=O)NC2OCOC3C2OC(CC(O)CO)C(C)(C)C3OC)OC(C)C1C (stereo not shown) [Mycalamide A, mycalamide A]: > 99%

* * *

assay: Lymphocyte viability assay (LCV, MTT) on murine splenocytes; type: cell-based; conditions: mouse, splenocytes, MLR, 5.0 × 10^-5 μg/ml, MTT; read-out: % Viability (LCV)
measured_parameter: viability (%)

* C=C1CC(OC)(C(O)C(=O)NC2OCOC3C2OC(CC(O)CO)C(C)(C)C3OC)OC(C)C1C (stereo not shown) [Mycalamide A, mycalamide A] | 63

* * *

assay: Lymphocyte viability assay (LCV, MTT) on murine splenocytes; type: cell-based; conditions: mouse, splenocytes, mitogen study, 5.0 × 10^-3 μg/ml; read-out: LCV, % viability
measured_parameter: viability (%)

- C=C1CC(OC)(C(O)C(=O)NC2OCOC3C2OC(CC(O)CO)C(C)(C)C3OC)OC(C)C1C (stereo not shown) [Mycalamide A, mycalamide A]: 3

* * *

assay: Lymphocyte viability assay (LCV, MTT) on murine splenocytes; assay type: cell-based; details: mouse, splenocytes, MLR, 5.0 × 10^-1 μg/ml, MTT; read-out: % Viability (LCV)
measured_parameter: viability (%)

* C=C1CC(OC)(C(O)C(=O)NC2OCOC3C2OC(CC(O)CO)C(C)(C)C3OC)OC(C)C1C (stereo not shown) [Mycalamide A, mycalamide A] | 55
